Target: recombinant human 5-HT4 receptor (Homo sapiens)
Test: Determination of EC50 values for 5-HT4 receptor (CHO cells, pCRE-Luc reporter)
Settings: luciferase reporter, 4 hours incubation, read-out: 5-HT4 receptor agonistic binding in-vitro EC50
pEC50: −log10 of the molar value. Structures can show the parent of a compound that is named as a salt.
# key: entry, value: pEC50

[
  {
    "compound": "CC(C)N1CCC(CNC(=O)c2cccc3cn(C(C)C)nc23)CC1 [Example 13, fumarate]",
    "pEC50": "≥ 9.00"
  },
  {
    "compound": "CCn1cc2cccc(C(=O)NCC3CCN(CCCOC)CC3)c2n1 [Example 4, fumarate]",
    "pEC50": "≥ 9.00"
  },
  {
    "compound": "COCCCN1CCC(c2nnc(-c3cccc4cn(C(C)C)nc34)o2)CC1",
    "pEC50": "7.70 to 8.29"
  }
]

Challenge: Identify measured pEC50 associated with CC(C)n1cc2cccc(C(=O)NCC3CN(Cc4ccccc4)CCO3)c2n1 (stereo not shown) [Example 8, fumarate]
Response given: 7.30 to 7.70

###

Molecular target: recombinant human 5-HT4 receptor (Homo sapiens, UniProt Q13639)
Sequence (Q13639 whole entry): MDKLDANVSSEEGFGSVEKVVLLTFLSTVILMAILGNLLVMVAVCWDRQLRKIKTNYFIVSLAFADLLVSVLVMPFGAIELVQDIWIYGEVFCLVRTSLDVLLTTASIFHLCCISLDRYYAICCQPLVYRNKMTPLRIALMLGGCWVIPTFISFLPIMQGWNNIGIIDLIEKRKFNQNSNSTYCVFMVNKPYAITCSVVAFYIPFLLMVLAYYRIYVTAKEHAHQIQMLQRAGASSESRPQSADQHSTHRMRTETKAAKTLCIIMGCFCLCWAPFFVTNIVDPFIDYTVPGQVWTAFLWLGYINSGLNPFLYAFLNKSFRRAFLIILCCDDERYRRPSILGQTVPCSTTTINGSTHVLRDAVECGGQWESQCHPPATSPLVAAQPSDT
Experiment: Determination of EC50 values for 5-HT4 receptor (CHO cells, pCRE-Luc reporter)
Conditions: luciferase reporter, 4 hours incubation, read-out: 5-HT4 receptor agonistic binding in-vitro EC50
Counter-ions that a name gives are not always drawn.
propertyName: EC50

In the examples that follow, each entry is paired with its recorded EC50.
[
  {
    "compound": "CC(C)n1cc2cccc(C(=O)NCC3C4CN(C5CCOCC5)CC34)c2n1 (stereo not shown)",
    "EC50": "1.1 to 5 nM"
  },
  {
    "compound": "CC(C)n1cc2cccc(C(=O)NCC3CCN(CCF)CC3)c2n1",
    "EC50": "5.1 to 20 nM"
  },
  {
    "compound": "CC(C)n1cc2cccc(C(=O)NCC3CCN(CC4(O)CCCC4)CC3)c2n1",
    "EC50": "≤ 1 nM"
  },
  {
    "compound": "CC(C)n1cc2cccc(C(=O)NCC3CCN(C4CCCCC4)CC3)c2n1 [Example 15, fumarate]",
    "EC50": "≤ 1 nM"
  },
  {
    "compound": "CC(C)n1cc2cccc(C(=O)NCC3CCN(CC(C)(C)CO)CC3)c2n1",
    "EC50": "≤ 1 nM"
  },
  {
    "compound": "CC(C)n1cc2cccc(C(=O)NCC3C4CN(CC5CCOCC5)CC34)c2n1 (stereo not shown)",
    "EC50": "1.1 to 5 nM"
  },
  {
    "compound": "CC(C)n1cc2cccc(C(=O)NCC3CCN(CC(C)(C)O)CC3)c2n1.O=C(O)C(O)C(O)C(=O)O",
    "EC50": "≤ 1 nM"
  },
  {
    "compound": "CC(C)n1cc2cccc(-c3nnc(C4CCN(CC5CCOCC5)CC4)o3)c2n1 [Example 38, fumarate]",
    "EC50": "5.1 to 20 nM"
  },
  {
    "compound": "CC(C)n1cc2cccc(C(=O)NCC3CCN(CC(C)(C)F)CC3)c2n1",
    "EC50": "≤ 1 nM"
  }
]

Read the next record carefully.
Challenge: Let me know recorded EC50 for CC(C)n1cc2cccc(C(=O)NCC3CCN(C4CCC4)CC3)c2n1 [Example 14, fumarate] , thanks.
Response given: ≤ 1 nM

###

Test: Rodent pharmacokinetic study
Assay type: in vivo, Male wistar rats
Settings: male, Wistar, plasma; rat, 3 mg/kg oral vs 1 mg/kg intravenous
propertyName: bioavailability (%)

Answered examples (2):
[
  {
    "compound": "CC(C)n1cc2cccc(C(=O)NCC3CCN(CC(C)(C)O)CC3)c2n1.O=C(O)C(O)C(O)C(=O)O [Example 32]",
    "valueUnit": "%",
    "bioavailability": 18
  },
  {
    "compound": "CCn1cc2cccc(C(=O)NCC3CCN(CC4CCOCC4)CC3)c2n1.O=C(O)/C=C/C(=O)O [Example 2]",
    "valueUnit": "%",
    "bioavailability": 44
  }
]

(A) COCCCN1CC2C(CNC(=O)c3cccc4cn(C(C)C)nc34)C2C1.O=C(O)C(=O)O (stereo not shown) [Example 3]
(B) CC(C)n1cc2cccc(C(=O)NCC3CCN(CC4CCOCC4)CC3)c2n1 [Example 1]
Challenge: Between A and B , whose recorded bioavailability is greater? Write down the label attached to your selection.
Response given: A
(A: 47%, B: 25%)

###

Assay: Rodent pharmacokinetic study
Format: in vivo, Male wistar rats
Conditions: male, Wistar, plasma; rat, 3 mg/kg oral (gavage)
propertyName: AUC(0-t) (ng·h/mL)

The cases that follow already have their AUC(0-t) on record.
[
  {
    "molecule": "CC(C)n1cc2cccc(C(=O)NCC3CCN(CC4CCOCC4)CC3)c2n1 [Example 1]",
    "propertyName": "AUC(0-t)",
    "readoutNumber": 212
  },
  {
    "molecule": "CC(C)n1cc2cccc(C(=O)NCC3CCN(CC(C)(C)O)CC3)c2n1.O=C(O)C(O)C(O)C(=O)O [Example 32]",
    "propertyName": "AUC(0-t)",
    "readoutNumber": 155
  }
]

(1) CCn1cc2cccc(C(=O)NCC3CCN(CC4CCOCC4)CC3)c2n1.O=C(O)/C=C/C(=O)O [Example 2]
(2) COCCCN1CC2C(CNC(=O)c3cccc4cn(C(C)C)nc34)C2C1.O=C(O)C(=O)O (stereo not shown) [Example 3]
Challenge: When their AUC(0-t) values are compared, which is larger, 1 or 2 ? # reply format: chosen label
Response given: 2

###

Target: recombinant human 5-HT4 receptor (Homo sapiens, UniProt Q13639)
Test: Determination of EC50 values for 5-HT4 receptor (CHO cells, pCRE-Luc reporter)
Conditions: luciferase reporter, 4 hours incubation, read-out: 5-HT4 receptor agonistic binding in-vitro EC50
pEC50: −log10 of the molar value. Structures can show the parent of a compound that is named as a salt.
Entries and their pEC50 values follow.

Challenge: Provide pEC50, tested on recombinant human 5-HT4 receptor (Homo sapiens, UniProt Q13639), for CC(C)n1cc2cccc(C(=O)NCC3(O)CCN(CC(C)(C)O)CC3)c2n1 [Example 30, oxalate] .
Response given: 8.30 to 8.96

Challenge: Enter recorded pEC50 with recombinant human 5-HT4 receptor (Homo sapiens, UniProt Q13639) for CC(C)n1cc2cccc(C(=O)NCC3(F)CCN(CC4(O)CCOCC4)CC3)c2n1 here.
Response given: 8.30 to 8.96

Challenge: Please tell me the measured pEC50 for CC(C)n1cc2cccc(C(=O)NCC3(O)CCN(C4CCOCC4)CC3)c2n1 [Example 27, fumarate] ; system: recombinant human 5-HT4 receptor (Homo sapiens, UniProt Q13639).
Response given: 8.30 to 8.96

Challenge: Please respond with reported pEC50 (system recombinant human 5-HT4 receptor (Homo sapiens, UniProt Q13639)) for COCCN1CCC(CNC(=O)c2cccc3cn(C(C)C)nc23)CC1 [Example 25, fumarate] .
Response given: 8.30 to 8.96

###

Assay: Rodent pharmacokinetic study
Assay type: in vivo, Male wistar rats
Details: male, Wistar, plasma; rat, 3 mg/kg oral (gavage)
Procedure: Male wistar rats (225=25 grams) were used as experimental animals. Three to five animals were housed in each cage. […] dose (n=3). […] The concentrations of the compounds of formula (I) were quantified in plasma by qualified LC-MS/MS method using suitable extraction technique. The compounds of formula (I) were quantified in the calibration range around 2-2000 ng/mL in plasma. Study samples were analyzed using calibration samples in the batch and quality control samples spread across the batch. […]
propertyName: half-life (min)

Known half-life results, listed for orientation:
[
  {
    "compound": "COCCCN1CC2C(CNC(=O)c3cccc4cn(C(C)C)nc34)C2C1.O=C(O)C(=O)O (stereo not shown)",
    "half-life [min]": 48
  },
  {
    "compound": "CCn1cc2cccc(C(=O)NCC3CCN(CC4CCOCC4)CC3)c2n1.O=C(O)/C=C/C(=O)O",
    "half-life [min]": 66
  }
]

(P) CC(C)n1cc2cccc(C(=O)NCC3CCN(CC4CCOCC4)CC3)c2n1
(Q) CC(C)n1cc2cccc(C(=O)NCC3CCN(CC(C)(C)O)CC3)c2n1.O=C(O)C(O)C(O)C(=O)O
Challenge: half-life comparison. Which is larger, P or Q ? Give the label of your selection.
Response given: P
(P: 90 min, Q: 48 min)

###

Assay: Rodent pharmacokinetic study
Type: in vivo, Male wistar rats
Details: male, Wistar, plasma; rat, 1 mg/kg intravenous (bolus)
propertyName: half-life (h)

Reference set, count: 2
[
  {
    "compound": "CC(C)n1cc2cccc(C(=O)NCC3CCN(CC(C)(C)O)CC3)c2n1.O=C(O)C(O)C(O)C(=O)O",
    "half-life / h": 1.2
  },
  {
    "compound": "CC(C)n1cc2cccc(C(=O)NCC3CCN(CC4CCOCC4)CC3)c2n1",
    "half-life / h": 1.1
  }
]

(a) CCn1cc2cccc(C(=O)NCC3CCN(CC4CCOCC4)CC3)c2n1.O=C(O)/C=C/C(=O)O
(b) COCCCN1CC2C(CNC(=O)c3cccc4cn(C(C)C)nc34)C2C1.O=C(O)C(=O)O (stereo not shown)
Challenge: Hey, which is lower on measured half-life, a or b ? Reply briefly: the label of your chosen item.
Response given: b
(b: 0.9 h, a: 1.7 h)

Reference for the values: patent US9951045B2
